# Read-out: CD69, CD69 (gene 969)
# ASSAY_PROCEDURE: BSK_SAg_CD69: BioMAP Diversity Plus: SAg Assay for CD69 Biomarker Activity (AID 2283089)
# EXPERIMENTAL_SETUP: primary human HUVEC with PBMC; actives raise or lower the signal
Activity calls are given as the source filed them. Rule for the calls: active = hit-call score of the fitted dose curve at least 0.9, where 1 is the maximum; inactive = score below 0.9.
Choose one outcome from this list and give only that: active, inactive

Solved entries:
> print(dat)
                                   compound  classification
1  CCc1cc(C)cc(CC)c1-c1c(OC(=O)C(C)(C)C)n2n(c1=O)CCOCC2        inactive
2                          O=C(CCl)c1ccccc1          active
3                  CCCC[N+](CCCC)(CCCC)CCCC        inactive
4                CNC(=O)Oc1cc(C)c(SC)c(C)c1        inactive
5               Nc1ccc(-c2ccc(N)c(N)c2)cc1N          active
6            O=C1C(Cl)=C(Cl)C(=O)C(Cl)=C1Cl          active

Recorded test call requested for `O=[N+]([O-])c1ccc(Cl)cc1`
inactive

Recorded test call requested for CC(C)(C)C(O)C(Oc1ccc(-c2ccccc2)cc1)n1cncn1 (configuration not stated)
inactive

Recorded test call requested for `COCC(=O)N(c1c(C)cccc1C)N1CCOC1=O`
inactive

Recorded test call requested for `Oc1cc(Cl)ccc1Cl`
inactive

Recorded test call requested for `Clc1ccc(-c2ccccc2)cc1`
inactive

Data origin: PubChem BioAssay (EPA / NIEHS)
